// reported melting point per item

Problem: # query: melting point of entry CC(C)C(NS(=O)(=O)c1ccc(-c2ccccc2)cc1)C(=O)O (centres undefined)
Result: 164 to 166 °C

Problem: # query: melting point of entry `C=CCCC(C#N)(C#N)Cc1ccc(OC(C)=O)cc1`
Result: 80.2 °C

Problem: # query: melting point of entry `Cc1ccc(-n2c(-c3sc(Nc4ccc(Cl)cc4)nc3-c3ccccc3)nc3ccccc3c2=O)cc1`
Result: > 275 °C

Problem: # query: melting point of entry O=C1N(C(c2ccccc2)c2ccccc2)c2cc(F)ccc2C12COc1cc3c(cc12)CCO3 (centres undefined)
Result: 194 to 196 °C
